Each entry below lists one item and its recorded IC50 value.
- system.name: EGFR DM (L858R/T790M) (Homo sapiens, UniProt P00533, L858R/T790M)
- Construct: His tag
- Sequence (P00533 25-1210 T790M/L858R): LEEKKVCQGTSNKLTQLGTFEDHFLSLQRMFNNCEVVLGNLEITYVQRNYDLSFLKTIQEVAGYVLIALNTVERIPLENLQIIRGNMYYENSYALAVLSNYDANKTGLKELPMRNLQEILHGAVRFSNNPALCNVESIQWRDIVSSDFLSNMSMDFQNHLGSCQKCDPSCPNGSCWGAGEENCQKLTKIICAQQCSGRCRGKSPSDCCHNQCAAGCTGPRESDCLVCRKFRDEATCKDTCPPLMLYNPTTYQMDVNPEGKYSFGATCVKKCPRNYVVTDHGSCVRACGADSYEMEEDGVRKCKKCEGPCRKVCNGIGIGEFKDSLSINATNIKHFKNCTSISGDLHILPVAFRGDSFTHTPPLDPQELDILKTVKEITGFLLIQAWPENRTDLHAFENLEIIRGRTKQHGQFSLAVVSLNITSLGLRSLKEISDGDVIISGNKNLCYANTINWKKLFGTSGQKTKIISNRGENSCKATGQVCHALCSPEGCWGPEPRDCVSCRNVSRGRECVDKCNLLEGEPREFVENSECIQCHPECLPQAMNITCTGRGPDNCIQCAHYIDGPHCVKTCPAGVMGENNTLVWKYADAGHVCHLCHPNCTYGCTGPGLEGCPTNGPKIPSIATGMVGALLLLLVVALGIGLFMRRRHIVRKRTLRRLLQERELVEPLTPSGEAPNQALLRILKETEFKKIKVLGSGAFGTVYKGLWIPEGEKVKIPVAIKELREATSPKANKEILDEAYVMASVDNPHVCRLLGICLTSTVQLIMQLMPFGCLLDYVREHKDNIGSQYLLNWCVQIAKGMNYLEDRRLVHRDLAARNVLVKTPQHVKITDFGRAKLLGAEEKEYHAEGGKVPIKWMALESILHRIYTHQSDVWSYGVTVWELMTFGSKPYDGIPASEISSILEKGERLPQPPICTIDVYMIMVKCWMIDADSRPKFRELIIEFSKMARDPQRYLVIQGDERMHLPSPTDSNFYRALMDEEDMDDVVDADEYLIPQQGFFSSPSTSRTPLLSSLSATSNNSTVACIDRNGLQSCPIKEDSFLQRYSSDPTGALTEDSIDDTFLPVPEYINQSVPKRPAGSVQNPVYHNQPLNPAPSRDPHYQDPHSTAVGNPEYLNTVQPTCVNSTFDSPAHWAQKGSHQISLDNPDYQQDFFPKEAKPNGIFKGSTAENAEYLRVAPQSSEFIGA
- assay.notes: TR-FRET probe displacement assay, EGFR DM
- Assay type: binding
- cond: 30 min incubation, mean of at least 3 replicates; read-out: DM pIC50 (converted)
# number only, unit nM dropped from output

C=CC(=O)N1CC[C@H](Oc2cc3c(Nc4ccc(F)c(Cl)c4)ncnc3cc2OC)C1; 6.31
COc1cc2ncnc(Nc3ccc(F)c(Cl)c3)c2cc1O[C@H]1CCN(C(C)=O)C1; 31.6
C=CC(=O)N1CC[C@@H](Oc2cc3c(Nc4ccc(F)c(Cl)c4)ncnc3cc2OC)C1; 100

Proceed to the following item.
Input line: For "COc1cc2ncnc(Nc3ccc(F)c(Cl)c3)c2cc1O[C@@H]1CCN(C(C)=O)C1" , what is its reported IC50?
Output line: 25.1
